These entries and their values trace back to PubChem BioAssay (NCATS).

test system: HEK293; experiment: Cytotoxic Profiling of Annotated Libraries Using Quantitative High-Throughput Screening (AID 1296008); details: Five cell lines viability, CellTiter-Glo ATP luminescence, 48-72 h; active compounds read low; also: % is scaled to controls: 0 for no effect and ±100 for the full control effect; nearly all actives have a fitted effect of over 60% in size
Inconclusive results are not listed.
QUANTITY_NAME: max response (%)
Numeric answer only, unit % assumed.

// max response value for COC(=O)[C@@]1(c2ccc(C)cc2)C[C@H]1CN1CCC(O)(c2ccccc2)CC1 : -9.08

// max response value for C[C@@H]1CC[C@]2(C(=O)O[C@@H]3O[C@H](CO)[C@@H](O)[C@H](O)[C@H]3O)CC[C@]3(C)C(=CCC4[C@@]5(C)C[C@@H](O)[C@H](O)[C@](C)(C(=O)O)C5CC[C@]43C)[C@@H]2[C@]1(C)O (stereo not given in full) : 2.11

// max response value for C=C1OC2CC(C(=O)O)C=CC2NC1=O (stereo not given) : 3.15

// max response value for COC(=O)C1=CO[C@@H](O[C@@H]2O[C@H](CO)[C@@H](O)[C@H](O)[C@H]2O)[C@@H]2C(COC(C)=O)=C[C@H](O)[C@H]12 : -2.65

// max response value for CC(C)S(=O)(=O)N[C@H]1CCOC[C@@H]1c1ccc(-c2ccc(C#N)s2)cc1 : -111

// max response value for COC(=O)CCc1cc2ccoc2c(OC)c1O[C@@H]1O[C@H](CO)[C@@H](O)[C@H](O)[C@H]1O : -10.4

// max response value for CC1(C)CCCC2(C)C1C(O)C=C(CO)C2(O)CO (stereo not given) : -0.916

// max response value for CC1=CC(=O)CC(C)(C)[C@@]1(O)CC[C@@H](C)O[C@@H]1O[C@H](CO)[C@@H](O)[C@H](O)[C@H]1O : -2.25

// max response value for C=C1CC[C@H]2[C@@](C)(CCC(O)[C@@]2(C)CO)[C@@H]1CCC1=CCOC1=O (stereo not given in full) : 3.62

// max response value for COC1CC(O[C@H]2CC[C@@]3(C)C(=CC[C@]4(O)C3[C@H](OC(C)=O)[C@@H](OC(=O)c3ccccc3)[C@]3(C)[C@@H](C(C)=O)CC[C@@]34O)C2)OC(C)C1OC1CC(OC)C(OC2CC(OC)C(OC3OC(C)C(OC4OC(CO)C(O)C(O)C4O)C(OC)C3O)C(C)O2)C(C)O1 (stereo not given in full) : 1.75

// max response value for CC(O)/C=C/C1OC(=O)CC1Nc1ccc(C(=O)O)cc1 (stereo not given) : -8.85

// max response value for COC(=O)C12CCC(C)C(C)C1C1=CCC3C4(C)CCC(OC(C)=O)C(C)(C)C4CCC3(C)C1(C)CC2 (stereo not given) : 0.571

// max response value for CC1=CCC2C(C)(C)CCC[C@]2(C)[C@@]12CC[C@](C)(CC(=O)O)O2 (stereo not given in full) : -11.7

// max response value for C=C1C(O)C[C@@H]2C(C(=O)O)=CO[C@@H](O[C@@H]3O[C@H](CO)[C@@H](O)[C@H](O)[C@H]3OC(=O)c3ccc(O)cc3)[C@H]12 (stereo not given in full) : -0.967

// max response value for CC(C)(C)c1cc(Br)cc([C@H](CC(=O)O)NC(=O)CNC(=O)c2cc(O)cc(NC3=NCC(O)CN3)c2)c1 (stereo not given in full) : -3.62

// max response value for CCc1c(-c2ccccc2)c(-c2ccccc2)nn1-c1ccccc1-c1cccc(OCC(=O)O)c1 : -14.2

// max response value for CC1=CC(=O)CC(C)(C)C1/C=C/C(C)O[C@@H]1O[C@H](CO)[C@@H](O)[C@H](O)[C@H]1O[C@@H]1OC[C@](O)(CO)[C@H]1O (stereo not given in full) : 1.02

// max response value for C[C@H](C(=O)NC1CCCC1)N(C(=O)Cn1nnc(-c2ccc3c(c2)OCO3)n1)C1CCCCC1 : 2.96

// max response value for COC(=O)[C@H](O)[C@H]1C(C)(C)[C@H](OC(=O)C(C)C)[C@@]2(O)C(=O)[C@]1(C)C1CC[C@]3(C)C(CC(=O)O[C@H]3c3ccoc3)[C@]13O[C@@H]32 (stereo not given in full) : -5.39

// max response value for CC(C)c1cc(C(=O)N2CC[C@@H](NC(=O)C3CC3)C2)n[nH]1 : -9.12
